system_tested: C5a anaphylatoxin chemotactic receptor 1 (Homo sapiens, UniProt P21730)
Sequence (P21730 whole entry): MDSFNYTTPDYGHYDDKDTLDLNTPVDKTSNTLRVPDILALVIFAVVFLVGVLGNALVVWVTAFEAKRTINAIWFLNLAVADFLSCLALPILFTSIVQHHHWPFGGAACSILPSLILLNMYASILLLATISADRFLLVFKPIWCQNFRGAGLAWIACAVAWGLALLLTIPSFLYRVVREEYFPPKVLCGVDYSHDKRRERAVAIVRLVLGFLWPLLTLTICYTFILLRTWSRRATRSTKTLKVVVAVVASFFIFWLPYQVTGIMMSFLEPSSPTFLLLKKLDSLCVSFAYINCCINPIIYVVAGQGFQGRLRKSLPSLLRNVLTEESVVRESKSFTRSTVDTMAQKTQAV
experiment: Antagonist activity at human C5aR in CD88 transfected RBL cells assessed as inhibition of C5a-induced glucosaminidase release
Assay type: functional, cell-based
pIC50: −log10 of the molar value. Residues, ends and D or L forms follow the SMILES beside them.

molecule	pIC50
CC(=O)N[C@@H](Cc1ccccc1)C(=O)N[C@@H](CCCN)C(=O)N1CCC[C@H]1C(=O)N[C@H](CCC(C)C)C(=O)N[C@@H](Cc1ccc(F)cc1)C(=O)N[C@@H](Cc1ccccc1)C(N)=O	7.15
CC(=O)N[C@@H](Cc1ccccc1)C(=O)N[C@H]1CCCNC(=O)[C@H](C)NC(=O)[C@H](Cc2c[nH]c3ccccc23)NC(=O)[C@@H](CC2CCCCC2)NC(=O)[C@@H]2CCCN2C1=O (HELM PEPTIDE1{[ac].F.[Orn].P.[O=C([C@@H](CC1CCCCC1)N[*:1])[*:2]].W.A}$PEPTIDE1,PEPTIDE1,3:R3-7:R2$$$V2.0)	5.16

Origin of the recorded values: ChEMBL document CHEMBL1148673
